Assay: Cmax at steady state in hypercholesterolemic patient at 15 mg/kg administered for 3 months by HPLC-ESIMS/MS analysis
Assay type: ADME, organism-based
Set-up: dose 15 mg/kg
Conditions: human, in vivo
READOUT KIND: Cmax at 3 months (nM)
Give bare numbers, in nM.

stdin: Find the recorded Cmax at 3 months belonging to COc1ccc2cc3[n+](cc2c1OC)CCc1cc2c(cc1-3)OCO2.[Cl-] [BERBERINE CHLORIDE] and report it.
stdout: 4

----------
System: Homo sapiens
Assay: Cmax at steady state in hypercholesterolemic patient assessed as demethyleneberberin at 15 mg/kg/day administered for 3 months by HPLC-ESIMS/MS analysis
Format: ADME, organism-based
Parameters: dose 15 mg/kg/day
Conditions: in vivo
READOUT KIND: Cmax (nM)
One number for each entry, in nM.

stdin: Find the recorded Cmax belonging to COc1ccc2cc3[n+](cc2c1OC)CCc1cc2c(cc1-3)OCO2.[Cl-] [BERBERINE CHLORIDE] and report it.
stdout: 1.7

----------
Test: 1-Octanol-water distribution coefficient, log D of the compound at pH 6 after 1 week by HPLC-ESIMS/MS analysis
Assay type: physicochemical
# label = yes (1) if logD at 168 h >= -1 else no (0)

Some entries whose results are on file:
# MOLECULE, ASSIGNED CATEGORY
rows = [
    ("COc1cc2c(cc1O)CC[n+]1cc3c(OC)c(OC)ccc3cc1-2.[Cl-] [JATRORRHIZINE CHLORIDE]", "no (0)"),
    ("COc1ccc2cc3[n+](cc2c1OC)CCc1cc(O)c(O)cc1-3.[Cl-]", "no (0)"),
    ("COc1ccc2cc3[n+](cc2c1OC)CCc1cc2c(cc1-3)OCO2.[Cl-] [BERBERINE CHLORIDE]", "no (0)"),
    ("COc1ccc2cc3n(cc-2c1=O)CCc1cc2c(cc1-3)OCO2", "yes (1)"),
]

stdin: Check this molecule for logD at 168 h at or above -1: COc1ccc2cc3[n+](cc2c1O)CCc1cc2c(cc1-3)OCO2.[Cl-] [BERBERRUBINE CHLORIDE]
stdout: yes (1)

----------
Test: 1-Octanol-water distribution coefficient, log D of the compound at pH 7 after 1 week by HPLC-ESIMS/MS analysis
Format: physicochemical
Kindly state logD at 168 h for each of the entries shown.
Give bare numbers.

Worked set:
# COMPOUND, VALUE REPORTED
records = [
    ("COc1ccc2cc3n(cc-2c1=O)CCc1cc2c(cc1-3)OCO2", 2.9),
    ("COc1cc2c(cc1O)CC[n+]1cc3c(OC)c(OC)ccc3cc1-2.[Cl-] [JATRORRHIZINE CHLORIDE]", -1.2),
    ("COc1ccc2cc3[n+](cc2c1OC)CCc1cc(O)c(O)cc1-3.[Cl-]", -1.1),
    ("COc1ccc2cc3[n+](cc2c1OC)CCc1cc2c(cc1-3)OCO2.[Cl-] [BERBERINE CHLORIDE]", -1.2),
]

stdin: Find the recorded logD at 168 h belonging to COc1ccc2cc3[n+](cc2c1O)CCc1cc2c(cc1-3)OCO2.[Cl-] [BERBERRUBINE CHLORIDE] and report it.
stdout: 2.5
